ASSAY TARGET: BRD4(BD1) (Homo sapiens (Human))
EXPERIMENT SUMMARY: In vitro enzyme inhibition assay (BRD4 AlphaScreen, H4-tetraacetyl peptide)
Assay type: binding
pIC50: −log10 of the molar value.
OBSERVED PROPERTY: pIC50

Assay BRD4(BD1) (Homo sapiens (Human)), sample CCNS(=O)(=O)c1cccc(-c2cn(C)c(=O)c3ccc(F)cc23)c1 [Example 49] , pIC50 read: 5.30 to 6.30

====

ASSAY TARGET: BRD4(BD1) (Homo sapiens (Human))
EXPERIMENT SUMMARY: In vitro enzyme inhibition assay (BRD4 AlphaScreen, H4-tetraacetyl peptide)
Type: binding
STATED CONDITIONS: in vitro enzyme inhibition assay; class symbols; read-out: BRD4 IC50
OBSERVED PROPERTY: IC50

{"columns": ["SMILES DATA", "IC50"],
 "data": [
  ["Cc1cc(-c2cc(OS(N)(=O)=O)ccc2OCC2CC2)cn(C)c1=O", "< 500 nM"],
  ["Cn1cc(-c2cc(S(C)(=O)=O)ncc2OCC2CC2)c2ccc(F)cc2c1=O", "< 500 nM"]
]}

Please turn your attention to the following entry.
// assay BRD4(BD1) (Homo sapiens (Human)), entry Cn1cc(-c2cc(OS(N)(=O)=O)ccc2OCC2CC2)c2ccccc2c1=O , IC50 value = < 500 nM
